# target-under-test: G3BP1-NTF2 (residues 1-139) (human (by the printed UniProt entry …))
# test: ITC
Where no end group is shown, it is not given here.
experimental-readout: Kd

{GFP}-RQRVQDLMAQMQGPYNFIQDSMADFENQTLD (domain or fragment) [GFP-Caprin-1^356-386 L378A]; ~20 µM
